- test target: T1, Mycobacterium marinum GroEL1, recombinant (Mycobacterium marinum, UniProt B2HD10 1-539)
- T1 construct: also called Mmr GroEL1
- measurement notes: BLI
- test context: both partners purified
property: Kd

binder: GroEL1 sybody number 18 (VHH, not shown: Myc, C-terminal, kept; His6, C-terminal, kept) VHH: QVQLVESGGGLVQAGGSLRLSCAASGFPVKTKHMYWYRQAPGKEREWVAAITSIGMITAYADSVKGRFTISRDNAKNTVYLQMNSLKPEDTAVYYCNVKDWGTNRQAYDYWGQGTQVTVSA
readout value: ~22 nM

binder: GroEL1 sybody number 1 (VHH, not shown: Myc, C-terminal, kept; His6, C-terminal, kept) VHH: QVQLVESGGGLVQAGGSLRLSCAASGFPVEQRQMYWYRQAPGKEREWVAAIQSYGKRTKYADSVKGRFTISRDNAKNTVYLQMNSLKPEDTAVYYCVVYVGGGYKGQGTQVTVSA
readout value: ~130 nM

binder: GroEL1 sybody number 31 (VHH, also called GroEL1_SB31; not shown: Myc, C-terminal, kept; His6, C-terminal, kept) VHH: QVQLVESGGGSVQAGGSLRLSCAASGTIYKIYYLGWFRQAPGKEREGVAALNTFSGGTYYADSVKGRFTVSLDNAKNTVYLQMNSLKPEDTALYYCAAAYDMEGYAWPLYWWHYEYWGQGTQVTVSA
readout value: ~92 nM

binder: GroEL1 sybody number 5 (VHH, not shown: Myc, C-terminal, kept; His6, C-terminal, kept) VHH: QVQLVESGGGLVQAGGSLRLSCAASGFPVEHKQMRWYRQAPGKEREWVAAIESSGQYTIYADSVKGRFTISRDNAKNTVYLQMNSLKPEDTAVYYCFVGVGAGYYGQGTQVTVSA
readout value: ~127 nM

binder: GroEL1 sybody number 12 (VHH, not shown: Myc, C-terminal, kept; His6, C-terminal, kept) VHH: QVQLVESGGGLVQAGGSLRLSCAASGFPVTQAWMEWYRQAPGKEREWVAAIFSHGGGTFYADSVKGRFTISRDNAKNTVYLQMNSLKPEDTAVYYCNVKDTGERDNWYDYWGQGTQVTVSA
readout value: ~14 nM

binder: GroEL1 sybody number 9 (VHH, not shown: Myc, C-terminal, kept; His6, C-terminal, kept) VHH: QVQLVESGGGLVQAGGSLRLSCAASGLPVWQQGMTWYRQAPGKEREWVAAIDSVGAQTYYADSVKGRFTISRDNAKNTVYLQMNSLKPEDTAVYYCAVNVGARYIGQGTQVTVSA
readout value: ~64 nM
